Please provide measured % Retained 55° C. for the entries that follow.
- tgt: T1, TRCW5 antigen (CD3δε-Fc-Avi) (biotinylated (site not stated))
- T1 construct: also called recombinant CD3
- protocolDetails: ELISA after heat
Express your answer in %, writing the number without its unit.

Challenge: Give its % Retained 55° C. value. Item: CD3B2081 (scFv) scFv: QVQLVQSGAEVKKPGSSVKVSCKASGYTFTRSTMHWVRQAPGQGLEWIGYINPSSAYTNYAQKFQGRVTLTADKSTSTAYMELSSLRSEDTAVYYCASPQVHYDYNGFPYWGQGTLVTVSSGGSEGKSSGSGSESKSTGGSEIVLTQSPATLSASPGERVTLSCSASSSVSYMNWYQQKPGQAPRRWIYDSSKLASGVPARFSGSGSGRDYTLTISSLEPEDFAVYYCQQWSRNPPTFGGGTKVEIK
Response given: 112

Challenge: Give its % Retained 55° C. value. Item: CD3B2070 (scFv) scFv: QVQLVQSGAEVKKPGSSVKVSCKASGYTFTRSTMHWVRQAPGQGLEWMGYINPSSAYTNYNQKFQGRVTLTADKSTSTAYMELSSLRSEDTAVYYCASPQVHYDYNGFPYWGQGTLVTVSSGGSEGKSSGSGSESKSTGGSEIVLTQSPATLSASPGERVTLSCSASSSVSYMNWYQQKPGTSPRRLIYDSSKLASGVPARFSGSGSGRDYTLTISSLEPEDFAVYYCQQWSRNPPTFGGGTKVEIK
Response given: 107

Challenge: Give its % Retained 55° C. value. Item: CD3B1128 (scFv, also called Murine LH; murine Cris-7 scFv (LH)) scFv: QVVLTQSPAIMSAFPGEKVTMTCSASSSVSYMNWYQQKSGTSPKRWIYDSSKLASGVPARFSGSGSGTSYSLTISSMETEDAATYYCQQWSRNPPTFGGGTKLQITGGSEGKSSGSGSESKSTGGSQVQLQQSGAELARPGASVKMSCKASGYTFTRSTMHWVKQRPGQGLEWIGYINPSSAYTNYNQKFKDKATLTADKSSSTAYMQLSSLTSEDSAVYYCASPQVHYDYNGFPYWGQGTLVTVSA
Response given: 10

Challenge: Give its % Retained 55° C. value. Item: CD3B2069 (scFv) scFv: QVQLVQSGAEVKKPGSSVKVSCKASGYTFTRSTMHWVRQAPGQGLEWMGYINPSSAYTNYNQKFQGRVTLTADKSTSTAYMELSSLRSEDTAVYYCASPQVHYDYNGFPYWGQGTLVTVSSGGSEGKSSGSGSESKSTGGSEIVLTQSPATLSASPGERVTLSCSASSSVSYMNWYQQKPGTAPRRWIYDSSKLASGVPARFSGSGSGRDYTLTISSLEPEDFAVYYCQQWSRNPPTFGGGTKVEIK
Response given: 114

The measurements presented in this section are drawn from patent US20250145711A1.
